- Test system: SN12C renal
- protocol summary: NCI-60 one-dose screen, 48 h (100 = growth as untreated, 0 = no growth, -100 = all killed)
- test context: 10 µM unless noted
About 83,000 compounds went through this panel and 20% of them were active in at least one assay; those are over-represented in the sample as a whole.
# growth per record follows
measured quantity: growth (%)

compound	unit	quantitative result
COC(=O)[C@@H](OC)[C@@H]1Cc2cc3cc(OC4CC(OC5CC(O)C(O)C(C)O5)C(O)C(C)O4)c(C)c(O)c3c(O)c2C(=O)[C@H]1OC1CC(OC2CC(OC3CC(C)(O)C(O)C(C)O3)C(O)C(C)O2)C(O)C(C)O1 (stereo partly drawn)	%	9.04
Cc1c(Cn2c(C)nc3c(C(=O)O)cc(N4CCOCC4)cc32)cccc1C(F)(F)F	%	95.7
O=C(NO)c1ccc(Cn2c(=O)n(-c3ccccc3F)c(=O)c3ccccc32)cc1	%	11.5
CN(c1ncccc1CNc1nc(Nc2ccc3c(c2)CC(=O)N3)ncc1C(F)(F)F)S(C)(=O)=O	%	9.55
CC(=O)C1CC(C)CCC1C(C)C (stereo not drawn)	%	83.8
COc1ccc2c(CCc3ccc(Cl)cc3)c3[n+](cc2c1OC)CCc1cc2c(cc1-3)OCO2	%	21.9
CCN1CCN(c2nc(C)cc(N(CCCNc3ccnc4cc(Cl)ccc34)Cc3ccc4c(c3)OCO4)n2)CC1	%	30.1
CN(C)C/C=C/C(=O)Nc1cc2c(Nc3ccc(F)c(Cl)c3)ncnc2cc1O[C@H]1CCOC1	%	3.6

###

- Tested on: UO-31 renal
- protocol summary: NCI-60 one-dose screen, 48 h
- test context: 10 µM unless noted
- Description: Growth inhibition of the UO-31 human tumor cell line is measured as a screen for anti-cancer activity. Cells are grown in 96 well plates and exposed to the test compound for 48 hours. Compounds are tested at a single concentration, which is 10^-5 M for most compounds. The reported endpoint is percent growth (GI% or GIPRCNT), where numbers from 0 - 100% represent growth inhibition, and numbers from -100% - 0 represent cell death. For example, a value of 40 represents 60% growth inhibition. […]
Compounds without any hit were thinned out: in the full panel of roughly 83,000, 20% have a hit. Activity calls are given as the source filed them. The calls were made as follows: active = growth percent below 10; inactive = the rest.
Classes used: label 1 for active, label 0 for inactive

molecule	group
O=S1(=O)OC(c2ccc(O)c(Cl)c2)(c2ccc(O)c(Cl)c2)c2ccccc21	label 0
Cn1ncc(Cl)c1-c1cc(C(=O)N[C@H](CN)Cc2ccc(F)c(F)c2)oc1Cl	label 1
Nc1c(C(=O)c2ccccc2)sc2nc(-c3cccs3)cc(-c3cccs3)c12	label 0
COC1CCC(N2C(=O)CNc3ncc(-c4ccc(C(C)(C)O)nc4)nc32)CC1 (configuration not stated)	label 1
COc1cc(C2CC(c3ccc(Cl)cc3)=NN2c2ccc(Cl)cc2)cc(OC)c1OC (configuration not stated)	label 0
CN(C)C1CCN(C(=O)c2ccc(NC(=O)Nc3ccc(-c4nc(N5CCOCC5)nc(N5CCOCC5)n4)cc3)cc2)CC1	label 0
COC(=O)Nc1nc2ccc(C(=O)c3ccc(N(C)C4COC4)cc3)cc2[nH]1	label 0
CCCCn1c(C)nc2cc(Nc3nc(N4CCCCC4)nc4nc[nH]c34)ccc21	label 0
O=S1(=O)OC(c2cc(Cl)c(O)c(Br)c2)(c2cc(Cl)c(O)c(Br)c2)c2ccccc21	label 0
COc1cc(NCCCN)c2ncccc2c1	label 0
CN(C)CCn1c(=O)c2c3cc4c(cc3n(CCN(C)C)c2c2ccc(Cl)cc21)OCO4	label 0
CC(C)[C@@H](C)/C=C/[C@@H](C)[C@H]1CCC2=C3C=CC4=CC(=O)CC[C@]4(C)[C@H]3CC[C@@]21C	label 0
COc1ccc(Nc2ncccc2NC(=O)c2cn(Cc3cccc(Oc4ccccc4)c3)nn2)cc1	label 0
NC(=O)N1N=C(c2ccc(Cl)cc2)CC1c1cn(-c2ccccc2)nc1-c1ccc(Cl)cc1 (configuration not stated)	label 0
CC(=O)C1CC(C)CCC1C(C)C (configuration not stated)	label 0
COC(=O)[C@H](Cc1ccccc1)NC(=O)[C@@H](OC)[C@@H]1Cc2cc3cc(OC4CC(OC5CC(O)C(O)C(C)O5)C(O)C(C)O4)c(C)c(O)c3c(O)c2C(=O)[C@H]1OC1CC(OC2CC(OC3CC(C)(O)C(O)C(C)O3)C(O)C(C)O2)C(O)C(C)O1 (some centres not stated)	label 1
CC(CCCC(=O)O)c1ccoc1 (configuration not stated)	label 0
COc1cc(-c2nc(C(=O)Nc3ccc(C)cc3)nn2-c2ccc(F)c(F)c2)cc(OC)c1OC	label 0
C1=C\COCc2cc(ccc2OCCN2CCCC2)Nc2nccc(n2)-c2cccc(c2)COC/1	label 1
CC(C)(C)CC(C)(C)Nc1c(-c2c(O)c3ccccc3oc2=O)nc2c(Cl)cc(C(F)(F)F)cn12	label 0
COc1cnc2c(c1)C(=O)c1c-2n(CCCNC2=NCCS2)c(=O)c2cc(Cl)ccc12	label 1
Cc1cc(O)c2c(c1)C1OC(=O)CCCCCN1C1=C2C(=O)c2cccc(OC3CC(O)C(O)C(C)O3)c2C1=O (configuration not stated)	label 0
CNC(=O)c1cc(Oc2cccc3nc(Nc4ccc(Oc5ccccc5)cc4)ccc23)ccn1	label 0
Cc1ccccc1Nc1nc2nonc2nc1Nc1cccc(C)c1C	label 0
Nc1cc2c(cc1Br)-c1c(C(=O)O)cccc1C2O (configuration not stated)	label 0
Cc1ccc(-c2cc3c(SCC(=O)Nc4cc(C(F)(F)F)ccc4Cl)nccn3n2)cc1	label 0
CC[C@H](CO)Nc1nc(NCc2ccccc2)c2ncn(C(C)C)c2n1	label 0
Cn1c(Nc2ccc(C(F)(F)F)cc2)nc2cc(Oc3ccnc(-c4ncc(C(F)(F)F)[nH]4)c3)ccc21	label 0
C#Cc1cccc(Nc2ncnc3cc(OC)c(OCCCCCCC(=O)NO)cc23)c1	label 1
C[C@@H](Oc1cc(-n2cnc3ccc(CN4CCN(C)CC4)cc32)sc1C(N)=O)c1ccccc1C(F)(F)F	label 0
COC(=O)[C@]12CC[C@@H](C)[C@H](C)[C@@H]1C1=CC[C@@H]3[C@@]4(C)C(C#N)=CC(C)=C4CC[C@@]3(C)[C@]1(C)CC2	label 0
C=CC(=O)Nc1cc2c(Nc3ccc(F)c(Cl)c3)ncnc2cc1OCCCN1CCOCC1	label 1
Cc1ccccc1N1C(c2ccccc2)=NNC12C=CC(=O)C=C2Cl (configuration not stated)	label 0
O=C(O)C1(Cc2cccc(Nc3nccs3)n2)CCC(Oc2cccc(Cl)c2F)CC1 (configuration not stated)	label 0
C=CCN(/C=C1/C(=O)O[C@H](COC)[C@@]2(C)C1=C(O)C(=O)C1=C2[C@H](OC(C)=O)C[C@]2(C)C(=O)CC[C@@H]12)CC=C	label 1
O=C(Cn1cncn1)Nc1ccc(-c2nc3ccccc3s2)cc1	label 0
CC/C=C\C[C@H]1C/C=C2/C(=O)C=C[C@@H]2C/C=C\CCCC(=O)O1	label 1
